- System: HCT-116
- procedureDetails: Proliferation-inhibiting effect on tumor cells (SRB / MTT)
- Assay type: cell-based
- reportedConditions: Homo sapiens; HCT-116, 144 hours; read-out: IC50 (nM, mean ± SD)
readoutType: IC50 (nM)
Form entry: value (nM) — number only.

Sample CC[C@@]1(O)C(=O)OCc2c1cc1n(c2=O)Cc2c-1nc1ccc(N)c3c1c2C(F)(F)CC3 — what was its IC50?
0.3
